METHOD DESCRIPTION: Toxicity liver stage against HepG2, at 10uM
Format: cell-based
Design: test concentration 10 uM, cell line HepG2-A16-CD81EGFP
CONDITION: human, HepG2-A16-CD81EGFP cells; read-out: INHIBITION
PROPERTY MEASURED: cytotoxicity at 10 µM
Remember to put the unit after the number in your answer.

>>> observed_measurement("CC(=O)NCc1nnc2n1CCN(c1nc(C)nc3sccc13)CC2")
"15.5%"
>>> observed_measurement("O=C1CCC2(CCN(CCSc3ccccc3)CC2)CN1CCCO")
"2.09%"
>>> observed_measurement("Cc1cc(C(=O)NC(C)Cc2ccccc2Cl)n(C)n1 (configuration not stated)")
"2.8%"

// query cytotoxicity at 10 µM value for entry `CC(C)(C)CC(=O)Nc1ncn(CC(=O)NCc2ccccc2)n1` -3.38%

Same lookup for Cc1ccccc1-c1noc(C2CC(C(C)C)=NO2)n1 (configuration not stated) , please. -14.6%

Reference for the values: ChEMBL document CHEMBL4513216
